Exercise: for every item that follows, state its recorded CC50.
Output spec: scalar in µM, unitless text.

Ask | Write down the reported CC50 of C=C1C(=O)O[C@H]2[C@H]1CC/C(COC(=O)N1CCC(F)(F)CC1)=C\CC[C@@]1(C)O[C@@H]21 , test system: CCRF-CEM.
Reply | 67.6

Ask | Hello, I am looking for reported CC50 with CCRF-CEM for C=C1C(=O)O[C@H]2[C@H]1CC/C(COC(=O)CCC(=O)N1CCC(C)CC1)=C\CC[C@@]1(C)O[C@@H]21 . Could you help?
Reply | 58.6

Ask | Enter reported CC50 observed with CCRF-CEM for C=C1C(=O)O[C@H]2[C@H]1CC/C(COC(=O)NC)=C\CC[C@@]1(C)O[C@@H]21
Reply | 76.3
